measurement label: melting point

Answered cases to consult:
{"molecule": "COc1ccccc1Oc1cccc2c1NC(=O)C2SC (configuration not stated)", "melting point": "114 °C"}
{"molecule": "COC(=O)ON(C)C(=O)C(C)Nc1c([N+](=O)[O-])cc(C)cc1[N+](=O)[O-] (configuration not stated)", "melting point": "112 to 113 °C"}
{"molecule": "COc1cc2ncnc(N3CCN(C(=S)Nc4cc(C)cs4)CC3)c2cc1OC", "melting point": "214 to 216 °C"}
{"molecule": "Cc1ccc(S(=O)(=O)NC(=O)n2sc(Cl)cc2=O)cc1", "melting point": "125 to 128 °C"}
{"molecule": "CCN(CC)C(=S)SCc1ccccc1CSC(=S)N(CC)CC", "melting point": "78 to 80 °C"}

Task: Entry Cc1nc2c(OCc3c(Cl)cc(C(O)c4ccccc4)cc3Cl)cccn2c1Br (configuration not stated) : reported melting point = ?
Output: 178 to 179 °C

Task: Look up melting point for this molecule: CCCN1CC(=O)C(C(=O)OCC)C1=O (configuration not stated)
Output: 123 to 125 °C

---

Below, each of the compounds is paired with its reported melting point value.

{"compound": "Cc1c(F)cccc1NS(=O)(=O)c1cc(S(=O)(=O)Nc2cccc(F)c2C)c2cc(O)ccc2c1", "measurement label": "melting point", "endpoint value": "128 to 130 °C"}

Task: Would you mind telling me what melting point value was observed for `O=C(Nc1cccc2c1C(=O)c1c-2n[nH]c1-c1ccc(C(=O)N2CCC[C@H]2CNc2ccccc2)s1)NN1CCOCC1` ?
Output: > 300 °C

Task: // lookup melting point for CCOC(=O)CC(C)Nc1ccc(OC)c(OC)c1 (stereo not drawn)
Output: 59 to 60 °C

---

Readings of melting point for the listed compounds

These solved cases illustrate the format of a correct answer.
{"compound": "O=C(NCc1ccccc1Br)c1ccc2cnccc2n1", "measurement label": "melting point", "endpoint value": "129 to 130 °C"}
{"compound": "Cc1cc(C)n(C)c(=O)c1C(=O)O", "measurement label": "melting point", "endpoint value": "200 to 204 °C"}
{"compound": "CSC(Oc1cc(C)c(Br)c(C)c1)C(=O)NC(C)(C)C (stereo not drawn)", "measurement label": "melting point", "endpoint value": "123 to 125 °C"}

Task: Look up melting point: `COc1ccc(-c2cc(-c3ccccc3)[nH]c2C(=O)NCc2ccc(C(=O)Nc3ccccc3S)cc2)cc1`
Output: 134 to 135 °C

Task: Name the reported melting point value associated with the compound CCC(Sc1ccc(OC)c(Cl)c1Cl)C(=O)O (stereo not drawn)
Output: 143 to 145 °C

---

Item-by-item account of melting point

Worked cases, melting point given:
{"compound": "CC(C)CC(=O)Nc1ccc(-c2ccnc3c(C(=O)c4cccs4)cnn23)s1", "melting point": "268 to 270 °C"}
{"compound": "CC(C)(C)c1c(C(=O)NC2C3CC4CC(C3)CC2C4)cnn1-c1ccc(C(=O)O)cc1 (configuration not stated)", "melting point": "309 °C"}
{"compound": "CCN(C(=O)C(C)Oc1ccc(Oc2ncc(Cl)cc2Cl)cc1)C(CS)C(=O)O (configuration not stated)", "melting point": "89 to 91 °C"}
{"compound": "C=CCN1C(=O)C2CC(c3ccc(N)cc3)(C2)C1=O", "melting point": "176 to 178 °C"}
{"compound": "CC(=O)NC1CCN(c2ccc(C#N)c3ccccc23)C1 (configuration not stated)", "melting point": "154 to 155 °C"}
{"compound": "COC(C)=Nc1cccc(O)n1", "melting point": "128 to 129 °C"}
{"compound": "CCOC(OCC)c1nc(C2CC2)nc(N)c1Cl", "melting point": "104 to 110 °C"}
{"compound": "c1ccc2c(c1)CCN(Cc1nc3ccccc3[nH]1)C2", "melting point": "184 to 186 °C"}
{"compound": "O=[N+]([O-])c1cc(Br)ccc1N1CCc2ccccc21", "melting point": "100 to 102 °C"}
{"compound": "CN1OCCN(c2ccc(Cl)c(C(F)(F)F)c2)C1=O", "melting point": "72 to 73 °C"}

Task: melting point for CC1OC2c3cc(F)ccc3N3CCC2(CC3)O1 (configuration not stated) ?
Output: 103 to 107 °C

Task: Need melting point of CC(=O)OC1CCC2(C)C(=CCC3C2CCC2(C)C(n4ccnc4)=C(C=O)CC32)C1 (configuration not stated) , thanks.
Output: 218 to 220 °C

Task: May I ask what melting point has been recorded for OCCC1(c2ccc(Cl)c(Cl)c2)CNCCO1 (configuration not stated) ?
Output: 90 to 91 °C

Task: Fill in: melting point of `Cc1sc(N2C(=O)c3ccccc3C2=O)c(C(=O)c2ccc(Cl)cc2)c1CN(C)Cc1ccccc1` is ___
Output: 197 to 199 °C

Task: Given the entry Cc1cccc(NC(=O)NC2C(=O)N(C)c3ccccc3N(C34CC5CC(CC(C5)C3)C4)C2=O)c1 (configuration not stated) , report its measured melting point.
Output: 245 to 247 °C

Task: Query (compound): `CCCc1ccc(-c2ccc(-c3ccc(OC)cc3)nn2)cc1` ; field requested: melting point
Output: 128 to 130 °C

Task: Given the entry `O=C1OC(c2ccccc2)(c2ccccc2)CC(O)=C1CCCc1ccccc1` , report its measured melting point.
Output: 61 to 63 °C
